Assay: chemical genetic growth profiling, strain panel (AID 1159580);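 note: tested at 20 µM; growth read once vehicle control cultures reached saturation at 30 °C; lower values mean less growth of the strain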
Details: S. cerevisiae deletion strains, growth OD, locus YJL129C, strain trk1, active compounds read low
In all, about 5,500 compounds went through this assay and about 2,000 (36%) were called active. Not shown: some 18% with an inconclusive outcome. Some of the results follow.
Rule: normalized growth below 1 gives Fulfilled, anything at or above gives Not fulfilled.

query.smiles	group.label
O=C(O)CNCP(=O)(O)O	Not fulfilled
CC1=C(/C=C/C(C)=C/C=C/C(C)=C/C(=O)O)C(C)(C)CCC1	Fulfilled

* * *

Test: chemical genetic growth profiling, strain panel (AID 1159580);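 note: tested at 20 µM; growth read once vehicle control cultures reached saturation at 30 °C; lower values mean less growth of the strain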
Conditions: S. cerevisiae deletion strains, growth OD, locus YJR043C, strain POL32
The campaign covered roughly 5,500 compounds. About 2,000 (36%) were called active. Not shown: some 18% with an inconclusive outcome. Rule as the data show it: active = normalized growth mostly below about 0.91 (no sharp cut-off); inconclusive = no clear call, values can overlap the other calls; inactive = mostly above about 0.92. The list shows a part of the results.
Outcomes: active, inactive

compound	group.label
CCOP(=S)(OCC)SCSP(=S)(OCC)OCC	inactive
CC1(C)CCC(C(C)(C)O)CC1	inactive
CCCCC(CC)CN=C(N)NC(N)=NCCCCCCN=C(N)NC(N)=NCC(CC)CCCC (stereo not drawn)	active
C[C@@H]1CC2C3CCC4=CC(=O)C=C[C@]4(C)[C@@]3(F)[C@@H](O)C[C@]2(C)[C@@]1(O)C(=O)COP(=O)(O)O (stereo partly drawn)	inactive
C/C(=N/OC(=O)c1ccc(Cl)cc1)c1ccc(F)cc1	active
COC(=O)c1ccc(C#Cc2ccccc2)o1	active
S=c1[nH]c2ccccc2[nH]1	inactive
O=C(O)P(=O)(O)O	inactive
OCC(S)CS (stereo not drawn)	active
CCOC(=O)CCCCCCCCCCCCC1C=CCC1 (stereo not drawn)	active
O=C(O)CNCP(=O)(O)O	inactive
Cc1cc(/C=N/NC(N)=S)c2c(C)ccc(C(C)C)cc1-2	inactive
CCN(CC)CCOC(=O)C(Cc1cccc2ccccc12)CC1CCCO1 (stereo not drawn)	inactive

These data points were gathered from PubChem BioAssay AID1159580.
